Each entry below lists one item and its recorded qm (maximum capacity) value.
target: Human IgG (HIgG) (human); assay: batch adsorption isotherm, PBS pH 7.4, peptide resin 0.1 meq/g, direct Langmuir fit
No end group written: not given here.
endpointLabel: qm (maximum capacity)

1. HFRRHLA-{Toyopearl AF‑Amino‑650 resin}	158 mg/g
2. WHWRKRA-{Toyopearl AF‑Amino‑650 resin}	62.4 mg/g
3. HVHYYWA-{Toyopearl AF‑Amino‑650 resin}	129 mg/g
